# TEST_PARAMETERS: 313.15 K; 101 kPa; Liquid
QUANTITY_NAME: speed of sound (m/s)
I only need the number, in m/s, no unit after it.

Recorded speed of sound, per entry:
{"COMPOUND": "c1ccccc1", "speed of sound, m/s": 1228}
{"COMPOUND": "CCCCc1ccccc1", "speed of sound, m/s": 1276}

Using known records, supply speed of sound for `CC(C)c1ccccc1`
1248

Using known records, supply speed of sound for CCOC=O [ethyl methanoate]
1052

Using known records, supply speed of sound for `CC(C)Cc1ccccc1`
1236

* * *

# TEST_PARAMETERS: 313.15 K; 101 kPa; Liquid; Capillary tube (Ostwald / Ubbelohde) method
± gives the expanded uncertainty stated by the source.
QUANTITY_NAME: viscosity
Quick note: unit goes after the number.

Using known records, supply viscosity for `CCCCc1ccccc1`
0.787 ± 0.012 mPa·s

Using known records, supply viscosity for CCOC=O [ethyl methanoate]
0.324 ± 0.01 mPa·s

Using known records, supply viscosity for `c1ccccc1`
0.497 ± 0.011 mPa·s

Using known records, supply viscosity for `CC(C)Cc1ccccc1`
0.784 ± 0.012 mPa·s

Using known records, supply viscosity for `CC(C)c1ccccc1`
0.611 ± 0.011 mPa·s

* * *

# TEST_PARAMETERS: 313.15 K; 101 kPa; Liquid
Overview of recorded mass density for various compounds
I only need the number, in kg/m3, no unit after it.

{"COMPOUND": "CCCCc1ccccc1 [butylbenzene]", "UNIT_ABBREVIATION": "kg/m3", "mass density": 844.6}
{"COMPOUND": "CCOC=O [ethyl methanoate]", "UNIT_ABBREVIATION": "kg/m3", "mass density": 897.1}
{"COMPOUND": "CC(C)Cc1ccccc1 [(2-methylpropyl)benzene]", "UNIT_ABBREVIATION": "kg/m3", "mass density": 837.6}

Using known records, supply mass density for CC(C)c1ccccc1 [isopropylbenzene]
845.4

Using known records, supply mass density for c1ccccc1 [benzene]
858.9

* * *

# TEST_PARAMETERS: 303.15 K; 101 kPa; Liquid
QUANTITY_NAME: mass density (kg/m3)
I only need the number, in kg/m3, no unit after it.

Recorded mass density, per entry:
{"COMPOUND": "CC(C)Cc1ccccc1", "mass density [kg/m3]": 844.4}
{"COMPOUND": "CCOC=O [ethyl methanoate]", "mass density [kg/m3]": 907.8}
{"COMPOUND": "CCCCc1ccccc1", "mass density [kg/m3]": 851.3}

Using known records, supply mass density for `CC(C)c1ccccc1`
852.7

Using known records, supply mass density for `c1ccccc1`
867.6

* * *

# TEST_PARAMETERS: 308.15 K; 101 kPa; Liquid; Capillary tube (Ostwald / Ubbelohde) method
Use 0.7 mPa·s as the dividing line for viscosity, with the line itself on the true side and lower values as false.

Determine whether measured viscosity meets or exceeds 0.7 mPa·s for `c1ccccc1`
false

Determine whether measured viscosity meets or exceeds 0.7 mPa·s for `CCCCc1ccccc1`
true

* * *

Overview of recorded mass density for various molecules
# TEST_PARAMETERS: 308.15 K; 101 kPa; Liquid
± gives the expanded uncertainty stated by the source.

{"MOLECULE": "CCCCc1ccccc1", "mass density": "848 ± 0.7 kg/m3"}
{"MOLECULE": "CC(C)Cc1ccccc1", "mass density": "841.1 ± 0.8 kg/m3"}
{"MOLECULE": "CC(C)c1ccccc1", "mass density": "849 ± 0.7 kg/m3"}
{"MOLECULE": "c1ccccc1", "mass density": "863.2 ± 0.7 kg/m3"}

Next molecule, mass density to be filled in.
Using known records, supply mass density for CCOC=O [ethyl methanoate]
902.6 ± 0.7 kg/m3

* * *

Overview of recorded speed of sound for various compounds
# TEST_PARAMETERS: 308.15 K; 101 kPa; Liquid
I only need the number, in m/s, no unit after it.

Recorded speed of sound, per entry:
{"COMPOUND": "c1ccccc1", "QUANTITY_NAME": "speed of sound", "RESULT": 1252}
{"COMPOUND": "CC(C)c1ccccc1", "QUANTITY_NAME": "speed of sound", "RESULT": 1264}
{"COMPOUND": "CCOC=O [ethyl methanoate]", "QUANTITY_NAME": "speed of sound", "RESULT": 1072}

Using known records, supply speed of sound for `CC(C)Cc1ccccc1`
1252

Using known records, supply speed of sound for `CCCCc1ccccc1`
1292

* * *

# TEST_PARAMETERS: 303.15 K; 101 kPa; Liquid
Overview of recorded speed of sound for various molecules
I only need the number, in m/s, no unit after it.

{"MOLECULE": "c1ccccc1", "UNIT_ABBREVIATION": "m/s", "speed of sound": 1276}
{"MOLECULE": "CCCCc1ccccc1", "UNIT_ABBREVIATION": "m/s", "speed of sound": 1308}
{"MOLECULE": "CC(C)Cc1ccccc1", "UNIT_ABBREVIATION": "m/s", "speed of sound": 1268}
{"MOLECULE": "CC(C)c1ccccc1", "UNIT_ABBREVIATION": "m/s", "speed of sound": 1280}

Next molecule, speed of sound to be filled in.
Using known records, supply speed of sound for CCOC=O [ethyl methanoate]
1092

* * *

# TEST_PARAMETERS: 303.15 K; 101 kPa; Liquid; Capillary tube (Ostwald / Ubbelohde) method
Overview of recorded viscosity for various compounds
I only need the number, in mPa·s, no unit after it.

Recorded viscosity, per entry:
{"COMPOUND": "c1ccccc1", "viscosity [mPa·s]": 0.569}
{"COMPOUND": "CCCCc1ccccc1", "viscosity [mPa·s]": 0.901}
{"COMPOUND": "CCOC=O [ethyl methanoate]", "viscosity [mPa·s]": 0.373}
{"COMPOUND": "CC(C)c1ccccc1", "viscosity [mPa·s]": 0.69}

Using known records, supply viscosity for `CC(C)Cc1ccccc1`
0.905

* * *

# TEST_PARAMETERS: 308.15 K; 101 kPa; Liquid; Capillary tube (Ostwald / Ubbelohde) method
QUANTITY_NAME: viscosity (mPa·s)
I only need the number, in mPa·s, no unit after it.

{"COMPOUND": "CC(C)Cc1ccccc1 [(2-methylpropyl)benzene]", "RESULT": 0.848}
{"COMPOUND": "CCOC=O [ethyl methanoate]", "RESULT": 0.345}

Next compound, viscosity to be filled in.
Using known records, supply viscosity for CC(C)c1ccccc1 [isopropylbenzene]
0.651

# credit: the NIST ThermoML archive (doi:10.1021/je900689m)
